Target: tRNA^pyl/pylRS^AF (Methanosarcina mazei, UniProt Q8PWY1, Y306A/Y384F)
Construct: expressed in transfected cells; host or cells: HeLa Kyoto cells, plasmid pCMV tRNA^pyl/pylRS^AF
Sequence (Q8PWY1 whole entry Y306A/Y384F): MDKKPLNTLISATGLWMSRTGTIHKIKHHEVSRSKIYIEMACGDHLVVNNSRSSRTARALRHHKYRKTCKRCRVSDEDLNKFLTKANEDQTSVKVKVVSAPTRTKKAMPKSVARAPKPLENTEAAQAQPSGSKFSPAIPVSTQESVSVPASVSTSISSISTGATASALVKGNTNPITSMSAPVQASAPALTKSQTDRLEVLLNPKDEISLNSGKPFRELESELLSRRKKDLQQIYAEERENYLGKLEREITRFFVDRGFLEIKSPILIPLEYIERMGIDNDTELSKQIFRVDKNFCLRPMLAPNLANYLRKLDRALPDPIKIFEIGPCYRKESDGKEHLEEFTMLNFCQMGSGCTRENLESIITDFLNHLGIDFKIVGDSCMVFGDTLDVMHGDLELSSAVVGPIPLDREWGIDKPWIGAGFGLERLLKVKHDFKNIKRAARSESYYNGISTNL
Experiment: UAA dependent amber suppression in HeLa cells (NLS-mCherry-^TAGGFP, automated microscope), RS^AF
Assay type: cell-based, M. maize
Settings: 100 μM UAA, HeLa nuclei, 24 h after transfection
Protocol: A single expression plasmid for expression of both tRNA^pyl and the pyrrolysine synthetase pylRS was generated by replacing the tRNA and synthetase of mammalian UAA expression plasmid pSWAN (Liu et al., Nat Methods 2007, 4: 239) with a synthetic gene derived from the plasmid pEVOL tRNA^pyl/pylRS^WT or pEVOL tRNA^pyl/pylRS^AF. […] UAA concentration dependent GFP expression in the presence of UAA 1, 13, 16 or 17 and RS^WT or RS^AF was analyzed using the following automated microscope procedure. […]
Quantity name: IGFP (average intensity of GFP, normalized)
Enter a number only.

Some solved cases for reference:
[[record]]
compound = "N[C@@H](CCCCNC(=O)OC1CC2C=CC1C2)C(=O)O (stereo partly shown)"
endpoint_value = 114.8

[[record]]
compound = "N[C@@H](CCCCNC(=O)OC1C#CCCCCC1)C(=O)O (stereo partly shown)"
endpoint_value = 106.1


QUERY: State, in one line, measured IGFP (average intensity of GFP, normalized) of N[C@@H](CCCCNC(=O)OCC1CC2C=CC1C2)C(=O)O (stereo partly shown)
RESULT: 76.6

QUERY: State, in one line, measured IGFP (average intensity of GFP, normalized) of N[C@@H](CCCCNC(=O)OC1CC/C=C/CCC1)C(=O)O (stereo partly shown)
RESULT: 28.8
